Biological target: Histone deacetylase 1 (Homo sapiens)
Sequence (Q13547 whole entry): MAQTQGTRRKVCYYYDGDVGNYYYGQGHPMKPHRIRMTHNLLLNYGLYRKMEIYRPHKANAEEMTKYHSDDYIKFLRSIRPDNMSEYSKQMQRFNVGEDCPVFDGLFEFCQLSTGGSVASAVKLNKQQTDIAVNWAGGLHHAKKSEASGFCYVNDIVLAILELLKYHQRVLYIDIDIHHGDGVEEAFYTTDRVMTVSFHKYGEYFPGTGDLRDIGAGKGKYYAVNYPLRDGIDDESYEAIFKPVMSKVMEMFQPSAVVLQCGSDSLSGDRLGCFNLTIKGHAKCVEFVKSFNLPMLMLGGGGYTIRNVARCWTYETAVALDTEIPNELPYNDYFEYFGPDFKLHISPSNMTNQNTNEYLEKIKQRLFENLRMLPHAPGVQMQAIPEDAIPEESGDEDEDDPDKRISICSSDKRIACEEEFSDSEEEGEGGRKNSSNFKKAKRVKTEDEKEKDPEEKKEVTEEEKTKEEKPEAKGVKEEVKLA
// classify: if (IC50 < 1000 nM) fulfilled else not fulfilled

# example entries with known answers
1. C#CCN(C)CCCOc1ccc(NC(=O)CCCCCCC(=O)NO)cc1Cl	fulfilled
2. C#CCN(C)CCCOc1cc(NC(=O)CCCCCCCCC(=O)NO)ccc1Cl	not fulfilled
3. C#CCN(C)CCCOc1cc(NCc2ccc(C(=O)NO)cc2)ccc1Cl	not fulfilled
4. C#CCN(C)CCCOc1cc(NC(=O)CCCCCCCC(=O)NO)ccc1Cl	not fulfilled
5. C#CCN(C)CCCOc1cccc(NC(=O)CCCCCCC(=O)NO)c1Cl	fulfilled

// switching to the query molecule
Problem: Does "C#CCN(C)CCCOc1cc(NCc2ccc(/C=C/C(=O)NO)cc2)ccc1Cl" have IC50 strictly under 1000 nM?
Solution: fulfilled
